Values compiled from patent US6995175B2.

Tested on: G-quadruplex oligonucleotide GGGTTAGGGTTAGGGTTAGGG (3.5 repeats of the human telomeric unit)
Procedure text: G-quadruplex stabilization, fluorescence Tm (FAM+DABCYL oligonucleotide)
Type: binding
Condition parameters: increase in Tm vs reference without product (44° C. in LiCl buffer), 0.2 μM oligonucleotide, 0.1 M LiCl, 10 mM cacodylate pH 7.6
Where a name gives a salt, the structure may show the parent alone.
For each record, write down the corresponding G4 Tm (G4 stabilization differential in ° C., product tested at 1 µM).
Numbers only; they are read as °C.

G4 Tm (G4 stabilization differential in ° C., product tested at 1 µM) for Cc1cc(N(C)C)c2cc(NC(=O)Cc3ccc(CC(=O)Nc4ccc5nc(C)cc(N(C)C)c5c4)cc3)ccc2n1 ? 3

Using the record for Cc1cc(N(C)C)c2cc(NC(=O)c3ccc(C(=O)Nc4ccc5nc(C)cc(N(C)C)c5c4)cc3)ccc2n1 , report its G4 Tm (G4 stabilization differential in ° C., product tested at 1 µM). 2

So what's the measured G4 Tm (G4 stabilization differential in ° C., product tested at 1 µM) for this one? COc1cc(C)nc2ccc(NC(=O)c3ccc(C(=O)Nc4ccc5nc(C)cc(OC)c5c4)s3)cc12 2.5

Record request: G4 Tm (G4 stabilization differential in ° C., product tested at 1 µM) value, item Cc1cc(N(C)C)c2cc(NCc3ccc(C(=O)Nc4ccc5nc(C)cc(N(C)C)c5c4)nc3)ccc2n1 [Example 22, Hydrochloride] 4

Form field: reported G4 Tm (G4 stabilization differential in ° C., product tested at 1 µM) of Cc1cc(N(C)C)c2cc(NC(=O)c3cccc(C(=O)Nc4ccc5nc(C)cc(N(C)C)c5c4)n3)ccc2n1 [Example 24, hydrochloride] 15.6

For the compound shown here, Cc1cc(N(C)C)c2cc(NC(=O)Nc3ccc(NC(=O)Nc4ccc5nc(C)cc(N(C)C)c5c4)cc3)ccc2n1 , give the reported G4 Tm (G4 stabilization differential in ° C., product tested at 1 µM). 11.5

Quick check: G4 Tm (G4 stabilization differential in ° C., product tested at 1 µM) of Cc1cc(N)c2cc(NC(=O)c3ccc(C(=O)Nc4ccc5nc(C)cc(N)c5c4)nc3)ccc2n1.Cl ? 5.5

# input compound: Cc1cc(N(C)C)c2cc(NC(=O)/C=C/C(=O)Nc3ccc4nc(C)cc(N(C)C)c4c3)ccc2n1 ; wanted: its G4 Tm (G4 stabilization differential in ° C., product tested at 1 µM) 9

----------
Tested on: human telomerase (HL60 cell extract)
Procedure text: Inhibition of telomerase, TRAP test (TS extension and PCR with HL60 extract)
Type: biochemical
Condition parameters: telomerase extract from HL60 cells
Structures can show the parent of a compound that is named as a salt.
Quantity measured: IC50 (nM)
The reply should be a number in nM, with the unit left off.

Fill in the recorded IC50 for this molecule, with human telomerase (HL60 cell extract) as test system: Cc1cc(N(C)C)c2cc(NCc3ccc(C(=O)Nc4ccc5nc(C)cc(N(C)C)c5c4)nc3)ccc2n1 [Example 22, Hydrochloride] 2900

Give human telomerase (HL60 cell extract) IC50 for Cc1cc(N(C)C)c2cc(NC(=O)Cc3ccc(CC(=O)Nc4ccc5nc(C)cc(N(C)C)c5c4)cc3)ccc2n1 1300

So what IC50 did Cc1cc(N(C)C)c2cc(NC(=O)c3cccc(C(=O)Nc4ccc5nc(C)cc(N(C)C)c5c4)n3)ccc2n1 [Example 24, hydrochloride] get with human telomerase (HL60 cell extract)? 500

Item Cc1cc(N)c2cc(NC(=O)c3cccc(C(=O)Nc4ccc5nc(C)cc(N)c5c4)n3)ccc2n1 [Example 23, hydrochloride] with human telomerase (HL60 cell extract) - IC50? 200

Given the entry Cc1cc(N)c2cc(NC(=O)c3ccc(C(=O)Nc4ccc5nc(C)cc(N)c5c4)s3)ccc2n1 , what IC50 was observed with human telomerase (HL60 cell extract)? 950

Checklist item: IC50 tested on human telomerase (HL60 cell extract), entry COc1cc(C)nc2ccc(NC(=O)c3ccc(C(=O)Nc4ccc5nc(C)cc(OC)c5c4)s3)cc12 , value? 1700

For human telomerase (HL60 cell extract), provide IC50 of Cc1cc(N)c2cc(NC(=O)c3ccc(C(=O)Nc4ccc5nc(C)cc(N)c5c4)nc3)ccc2n1.Cl [Example 17, Hydrochloride] please. 300

// fetch human telomerase (HL60 cell extract) IC50 for Cc1cc(N(C)C)c2cc(NC(=O)/C=C/C(=O)Nc3ccc4nc(C)cc(N(C)C)c4c3)ccc2n1 1200

Hello, I am looking for reported IC50 with human telomerase (HL60 cell extract) for Cc1cc(N(C)C)c2cc(NC(=O)c3ccnc(C(=O)Nc4ccc5nc(C)cc(N(C)C)c5c4)c3)ccc2n1 . Could you help? 1100

Form field - read-out: IC50; system: human telomerase (HL60 cell extract); submitted item: CSc1c(Cl)nc(Nc2ccc3nc(C)cc(N)c3c2)nc1Nc1ccc2nc(C)cc(N)c2c1 550

Recorded IC50 for Cc1cc(N(C)C)c2cc(NC(=O)Nc3ccc(NC(=O)Nc4ccc5nc(C)cc(N(C)C)c5c4)cc3)ccc2n1 with human telomerase (HL60 cell extract), please? 800

# value lookup — system human telomerase (HL60 cell extract), readout IC50, item Cc1cc(N(C)C)c2cc(NC(=O)c3ccc(C(=O)Nc4ccc5nc(C)cc(N(C)C)c5c4)nc3)ccc2n1 600

Lab note: need IC50 for Cc1cc(N(C)C)c2cc(NC(=O)c3ccc(C(=O)Nc4ccc5nc(C)cc(N(C)C)c5c4)cc3)ccc2n1 on human telomerase (HL60 cell extract), anyone have it? 1500

Reported IC50 for human telomerase (HL60 cell extract), given COc1cc(C)nc2ccc(NC(=O)Nc3cccc(NC(=O)Nc4ccc5nc(C)cc(OC)c5c4)c3)cc12 ? 750

Return IC50 measured with human telomerase (HL60 cell extract) given this molecule: Cc1cc(N)c2cc(NC(=O)c3cccc(C(=O)Nc4ccc5nc(C)cc(N)c5c4)c3)ccc2n1 310

For human telomerase (HL60 cell extract), provide IC50 of Cc1cc(N(C)C)c2cc(NC(=O)c3ccc(C(=O)Nc4ccc5nc(C)cc(N(C)C)c5c4)s3)ccc2n1 please. 900
